Source listed as patent US20170247475A1.

# reported IC50; entries follow
Molecular target: T1, recombinant human VEGF165 (human, UniProt P15692-4 27-191)
T1 construct: also called hVEGF165; rhVEGF165
T1 sequence (P15692 other isoform, or with tags, fused parts or gaps limits assumed): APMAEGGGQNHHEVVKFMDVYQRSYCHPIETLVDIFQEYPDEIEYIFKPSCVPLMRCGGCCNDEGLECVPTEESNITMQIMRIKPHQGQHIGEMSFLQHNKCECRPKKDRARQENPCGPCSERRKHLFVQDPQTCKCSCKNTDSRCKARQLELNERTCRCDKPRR
Assay: hVEGF165/hVEGFR2-Fc competition AlphaScreen
Measurement type: IC50 (nM)

INSERT INTO measurements (binder, measurement_type, recorded_value) VALUES
  ('VEGFBII010 (VHH, bivalent VHH in one chain; also called VEGFBII23B04-35GS-23B04; homodimeric VEGFBII23B04) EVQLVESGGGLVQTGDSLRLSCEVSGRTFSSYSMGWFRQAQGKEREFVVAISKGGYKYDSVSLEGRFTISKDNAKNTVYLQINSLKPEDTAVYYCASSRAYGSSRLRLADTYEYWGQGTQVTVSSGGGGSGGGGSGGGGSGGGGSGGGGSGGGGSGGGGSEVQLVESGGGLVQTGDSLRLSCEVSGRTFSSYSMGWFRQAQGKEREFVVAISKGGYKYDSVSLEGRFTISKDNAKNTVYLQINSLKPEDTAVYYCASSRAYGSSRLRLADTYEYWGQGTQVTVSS', 'IC50', 0.016),
  ('VEGFBII022 (VHH, biparatopic bivalent VHH in one chain; also called VEGFBII23B04-9GS-5B05) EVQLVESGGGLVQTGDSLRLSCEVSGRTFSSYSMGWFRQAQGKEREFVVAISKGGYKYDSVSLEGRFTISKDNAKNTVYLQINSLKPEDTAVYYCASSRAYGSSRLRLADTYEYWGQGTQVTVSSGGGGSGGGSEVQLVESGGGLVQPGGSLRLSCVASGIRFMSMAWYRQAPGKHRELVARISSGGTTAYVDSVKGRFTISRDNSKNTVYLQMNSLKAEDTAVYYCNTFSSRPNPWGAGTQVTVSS', 'IC50', 0.007),
  ('VEGFBII24C04 (VHH, also called VEGFBII24C4) VHH: EVQLVESGGGLVQPGDSLKLSCVASGRTSSSYSMGWFRQAQGKEREFVVAISSGGYIYDSVSLQGRFTISRDNTKNTVYLQTPSLKPEDTAVYYCAASRAYGSSRLRLADTYDYWGQGTQVTVSS', 'IC50', 0.25),
  ('VEGFBII023 (VHH, biparatopic bivalent VHH in one chain; also called VEGFBII23B04-40GS-10E07; VEGFBI023) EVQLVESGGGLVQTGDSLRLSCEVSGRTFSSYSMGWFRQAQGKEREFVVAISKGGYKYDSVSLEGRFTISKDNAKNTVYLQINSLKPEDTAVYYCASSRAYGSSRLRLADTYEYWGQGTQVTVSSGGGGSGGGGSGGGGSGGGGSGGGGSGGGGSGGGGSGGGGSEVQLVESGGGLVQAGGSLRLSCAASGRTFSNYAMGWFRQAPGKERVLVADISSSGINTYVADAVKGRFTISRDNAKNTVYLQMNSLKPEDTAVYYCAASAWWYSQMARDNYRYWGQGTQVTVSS', 'IC50', 0.046);
